Measured On: T1, human CDH17 His Tag (Sino biological, catalog number 11360-H08H) (human, UniProt Q12864 23-787)
T1 construct: Bought recombinant protein; also called hCDH17; human CDH17 protein; not shown: His tag
Experiment: ELISA, plate coated with 1 µg/ml human CDH17 His Tag, hybridoma supernatant
Recorded OD450 for the following binders
Please give a number only; it is taken to be in OD450.

Example entries begin here.
Binder | OD450 / OD450
10E11 (hybridoma clone supernatant) (antibody, V domains shown, Hybridoma supernatant) VH: EVQLVQSGTEVKKPGESLKISCKDSGYRFSSYWIGWVRQMPGKGLEWMGIIYPGDSDTRYSPSFQGQVTISADKSISTAYLQWRSLKASDTAMYYCARRGWVNYFDYWGQGTLVTVSS VL: DIQMTQSPSSVSASVGDRVTITCRASQGISNWLGWYQQKPGKAPKLLIYAASSLQSGVPSRFSGSGSGTDFTLTISSLQPEDFATYYCQQANSFPLTFGGGTKVEIK | 1.48
15A4 (hybridoma clone supernatant) (antibody, V domains shown, Hybridoma supernatant) VH: QVQLVESGGGVVQPGRSLRLSCAASGFNFSSYGMHWVRQAPGKGLEWVAFVWYDGSNQNYADSVKGRFTISRDNSNNTLYLQMNSLRAEDTAVYYCARDRYSSGWDVFDYWGQGTLVTVSS VL: DIQMTQSPSSVSASVGDRVTITCRASQGISSWLAWYQQKPGKAPKLLIFAASSLQSGVPSRFSGSGSGTGFTLTISSLQPEDFATYYCQQAKSFPPTFGQGTKVEIK | 1.6
14B12 (hybridoma clone supernatant) (antibody, V domains shown, Hybridoma supernatant) VH: QVQLQESGPGLVKPSETLSLTCTVSGGSINTYYRSWIRQPPGKGLEWIGYIYYSGNTNYNPSLKSRVTISADTSKNQFSLNLISVTAADTAMYYCARAQYGEEAFDIWGQGTLVTVSS VL: DIQMTQSPSSLSASVGDRVTITCRASQSITTYLNWYQQKPGKAPQLLIFAASRLQTGVPSRFSGSGSGTDFTLTISSLLPGDFATYYCQQSYNTPPTFGGGTKVEIK | 1.88
17F3 (hybridoma clone supernatant) (antibody, V domains shown, Hybridoma supernatant) VH: EVQLVESGGGLVKSGGSLRLSCAASGFTFSSYSLKWVRQAPGKGLEWVSSISSSSGYIYYADSVKGRFTISRDNAKNSLYLQMNSLRAEDTAMYYCARAVSTIAARPGYYYYYMDVWGKGTLVTVSS VL: DIQMTQSPSSVSASIGDRVTITCRASQDISTWFAWYQQKPGKAPKLLIYAASTLRSGVPSRFSGSGSGTDFTLTINSLQPEDFATYYCQQANSFPLTFGGGTKVEIK | 1.66
19C7 (hybridoma clone supernatant) (antibody, V domains shown, Hybridoma supernatant) VH: QITLKESGPTLVKPTQTLTLTCTFSGISLSTGGVGVGWIRQPPGKALEWLSLIYWNDDKRYSPSLKSRLTITKDSSKNQVVLTMTNMDPVDTATYYCAHSGLAAPFYNWFDPWGQGTLVTVSS VL: DIQMTQSPSSLSASVGDRVTITCRASQSISNYLNWYQLKPGNAPKLLIFAASSLQSGVPSRFSGSGSGTDFTLTISSLQPEDFATYFCQRSYSTLTFGGGTKVEIK | 1.84

// lookup OD450 for 4F9 (hybridoma clone supernatant) (antibody, V domains shown, Hybridoma supernatant) VH: QVQLQESGPGLVKPSGTLSLTCAVSGGSISSSNWWSWVRQPPGKGLEWIGEIYHSGSTSYNPSLKSRVTISVDKSKNQFSLKLSSVTAADTAVYYCARNDWGFPLDCWGQGTLVTVSS VL: DIQMTQSPSSLSASVGDRVTITCRASQSISSYLNWYQQKPGKAPKLLIYAASSLQSGVPSRFSGSGSGTHFTLTISSLQPEDFATYYCQQSHNIPITFGQGTRLEIK
1.52

Another binder to check: 1H10 (hybridoma clone supernatant) (antibody, V domains shown, Hybridoma supernatant from mice encoding human heavy and kappa variable regions) VH: QVQLVESGGGVVQPGRSLRLSCVASGFTFSSYGMHWVRQAPGKGLEWVTFIWYDGSNKNYADSVKGRFTISRDNSKNTLNLQMNSLRVEDTAVYYCARDRYSSGWDVFDYWGQGTLVTVSS VL: DIQMTQSPSSVSASVGDRVTITCRASQDISSWLAWYQQQPGKAPKLQIYAASSLQSGVPSRFSGSGSGTDFTLTISSLQPEDFATYYCQQAKSFPPTFGQGTKVEIK
1.79

Another binder to check: 9E2 (hybridoma clone supernatant) (antibody, V domains shown, Hybridoma supernatant) VH: EVQLVESGGGVVRPGGSLRLSCAASGFTFDNYGMSWVRQAPGKGLEWVSGINWNGGSTYYADSVRGRFTISRDNAKNSLYLQMNSLRAEDTALYYCARGSRYNWSYDAFDIWGQGTLVTVSS VL: DIQMTQSPSSLSASVGDRVTITCRASQGVRNALGWYQQKPGKAPKRLIYAASSLQSGVPSRFSGSGSGTEFTLTISSLQPEDFATYYCLQHNSYPFTFGPGTKVEIK
1.48

Another binder to check: 2F9 (hybridoma clone supernatant) (antibody, V domains shown, Hybridoma supernatant) VH: EVQLVESGGGVVRPGGSLRLSCAASGFTFDDYGMSWVRQAPGKGLEWVSGLSWNGGNTYYADSVKGRFTISRDNAKNSLYLQMNSLRAEDTALYYCARGSRYNWNYDAFDIWGQGTLVTVSS VL: DIQMTQSPSSLSASIGDRVTITCRASQGIRNALGWYQQKPGKAPKRLIYAASNLQSGVPSRFSGSGSGTEFTLTISSLQPEDFATYYCLQHNSYPFTFGPGTKVEIK
1.72

Another binder to check: 13C7 (hybridoma clone supernatant) (antibody, V domains shown, Hybridoma supernatant) VH: QITLKESGPTLVKPTQTLTLTCTFSGFSLSTSGVGVGWIRQPPGKALEWLALIYWNDDKRYRPSLKNRLTITKDTSKNQVVLTMTNMDPVDTATYYCTHYGVTAPFYNWFDPWGQGTLVTVSS VL: DIQMTQSPSSLSASVGDRVTITCRASQSITSYLNWYQQKPGKAPKLLIYAASSLQSGVPSRFSGSGSGTDFTLTISSLQPEDFATYYCQRSYSTLTFGGGTKVEIK
1.62
